protocol.details: HILIC, Waters ACQUITY UPLC BEH Amide, 100 × 2.1 mm, 1.7 µm; A: water + 0.125% formic acid + 10 mM ammonium formate; B: 5% water + 95% acetonitrile + 0.125% formic acid + 10 mM ammonium formate; gradient (min/%B) 0/100 2/100 7.7/70 9.5/40 10.25/30 12.75/100 17/100
settings: stereoisomer not certain
Items are presented alongside their recorded LC retention time.
Could you give me the number in min? Just the number is fine.

For orientation, consider the following solved cases.
NC(CCS)C(=O)O (stereo not given)    9.58
CC(C)CC(=O)OC(CC(=O)[O-])C[N+](C)(C)C (stereo not given)    5.36
Nc1[nH]c(=O)ncc1CO [5-Hydroxymethylcytosine]    6.9
CC(C)CC(N(C)C)C1(c2ccc(Cl)cc2)CCC1 (stereo not given)    1.86
CN(Cc1cnc2nc(N)nc(N)c2n1)c1ccc(C(=O)NC(CCC(=O)O)C(=O)O)cc1 (stereo not given) [Methotrexate]    7.67
NCCC(=O)NC(Cc1cnc[nH]1)C(=O)O (stereo not given)    9.54
CCn1cc(C(=O)O)c(=O)c2cc(F)c(N3CCN(C)CC3)cc21    3.65
NCCCNCCCCNCCCN    7.24
NC(Cn1cccn1)C(=O)O (stereo not given)    7.54

Exercise: I have this molecule here, O=c1[nH]cnc2nc[nH]c12 , and I need its recorded LC retention time.
Key: 4.99

====

protocol.details: HILIC, Waters ACQUITY UPLC BEH Amide, 100 × 2.1 mm, 1.7 µm; A: water + 0.125% formic acid + 10 mM ammonium formate; B: 5% water + 95% acetonitrile + 0.125% formic acid + 10 mM ammonium formate; gradient (min/%B) 0/100 2/100 7.7/70 9.5/40 10.25/30 12.75/100 17/100
settings: stereoisomer not certain
LC retention time less than 2 min is TRUE; LC retention time greater than or equal to 2 min is FALSE.

Reference set (3 entries):
CC(=O)OC1CC2CCC3C(CCC4(C)C3CC([N+]3(C)CCCCC3)C4OC(C)=O)C2(C)CC1N1CCCCC1 (stereo not given) [Vercuronium]    FALSE
COC1C(O)C(CO)OC1n1cc(C)c(N)nc1=O (stereo not given) [2'-O-Methyl-5-methylcytidine]    FALSE
O=C(O)CCCCC1SCC2NC(=O)NC21 (stereo not given) [Biotin]    FALSE

Exercise: Please check: LC retention time for NC(Cc1cccc(O)c1)C(=O)O (stereo not given) [3-Hydroxyphenylalanine] , strictly under 2 min or not?
Key: FALSE

Exercise: What would you report for O=[N+]([O-])c1cccc2cn[nH]c12 [7-Nitroindazole] ?
Key: TRUE

Exercise: What about this compound? COc1cn(C2OC(CO)C(O)C2O)c(=O)[nH]c1=O (stereo not given) [5-Methoxyuridine]
Key: FALSE

Exercise: Repeat with CCCCCCCCCCCC(CC1OC(=O)C1CCCCCC)OC(=O)C(CC(C)C)NC=O (stereo not given) [Orlistat]
Key: TRUE

Exercise: Try Nc1ccc(O)cc1 [4-Aminophenol] next.
Key: TRUE

====

LC retention time for assorted molecules
protocol.details: HILIC, Waters ACQUITY UPLC BEH Amide, 100 × 2.1 mm, 1.7 µm; A: water + 0.125% formic acid + 10 mM ammonium formate; B: 5% water + 95% acetonitrile + 0.125% formic acid + 10 mM ammonium formate; gradient (min/%B) 0/100 2/100 7.7/70 9.5/40 10.25/30 12.75/100 17/100
settings: stereoisomer not certain
Answer with a number only, understood to be in min.

Study these solved cases before continuing.
CC1CCN(CCCC(=O)c2ccc(F)cc2)CC1    2.12
CC(CN)C(=O)O (centres undefined)    7.4
CNCCCCOc1ccccc1Cc1ccccc1    2.46
CC(C(=O)O)c1ccc(CC2CCCC2=O)cc1 (centres undefined)    1.09
CN1C(=O)CN=C(c2ccccc2)c2cc(Cl)ccc21    1.1

Exercise: Any idea what LC retention time was measured for Nc1c(O)cccc1C(=O)O [3-Hydroxyanthranilic acid] ?
Key: 1.48
